Test system: house flies, Musca domestica
Measurement protocol: Insecticidal activity against house flies, topical application on the notum, 24 h mortality
Assay type: in vivo
Condition label: Musca domestica, read-out: House flies LD50
Property measured: log10 of LD50 (log10 of the value in mg/kg)
Remember, log10 of LD50, in mg/kg.

COSN(C)C(=O)Oc1cccc2c1OC(C)(C)C2: 1.19

Now, please, on to the next compound.
Look up log10 of LD50 for this compound: COSSN(C)C(=O)Oc1cccc2c1OC(C)(C)C2
1.31

* * *

# reported LD50; entries follow
Measurement protocol: Mammalian toxicity, oral, Swiss white mice
Format: in vivo
Condition label: mouse, in vivo, po, Table 1; oral in corn oil; samples contained polysulfide derivative in the amounts indicated; read-out: Mice LD50
Protocol: Mammalian toxicity was determined against Swiss white mice. The test compound was applied orally using corn oil as the carrier. Results are given as LD50 in mg of compound per kg body weight. The term "LD50 " represents the dose needed to kill 50% of the test animals. In interpreting the values in the table above, the lower the value for LD50 for house flies, the greater the insecticidal potency or toxicity of that particular compound. […]

Record excerpt, results attached:
CC(C)OSN(C)C(=O)Oc1cccc2c1OC(C)(C)C2 [Example 3]: 55 to 70 mg/kg
CCC(CC)OSN(C)C(=O)Oc1cccc2c1OC(C)(C)C2 [Example 12]: 63 mg/kg
CCCCCCOSN(C)C(=O)Oc1cccc2c1OC(C)(C)C2 [Example 4]: 88 mg/kg
CCOSN(C)C(=O)Oc1cccc2c1OC(C)(C)C2 [Example 2]: 46 mg/kg
CN(SOC(C)(C)C)C(=O)Oc1cccc2c1OC(C)(C)C2 [Example 13]: 75 mg/kg

Now, please, on to the next compound.
Look up LD50 for this compound: COc1ccc(COSN(C)C(=O)Oc2cccc3c2OC(C)(C)C3)cc1 [Example 16]
108 mg/kg

* * *

Test system: house flies, Musca domestica
Measurement protocol: Insecticidal activity against house flies, topical application on the notum, 24 h mortality
Type: in vivo
Condition label: Musca domestica, read-out: House flies LD50
Property measured: log10(LD50) (log10 of the value in mg/kg)
Remember, log10 of LD50, in mg/kg.

Look up log10(LD50) for this molecule: CC(C)Oc1ccccc1OC(=O)N(C)SOCc1ccccc1 [Example 9]
1.48

Look up log10(LD50) for this molecule: CCCCOSN(C)C(=O)Oc1ccccc1OC(C)C [Example 8]
1.66

* * *

Tested on: house flies, Musca domestica
Measurement protocol: Insecticidal activity against house flies, topical application on the notum, 24 h mortality
Type: in vivo
Condition label: Musca domestica, read-out: House flies LD50
Property measured: log10 LD50 (log10 of the value in mg/kg)
Remember, log10 of LD50, in mg/kg.

Record excerpt, results attached:
COc1ccc(COSN(C)C(=O)Oc2cccc3c2OC(C)(C)C3)cc1: 1.14
CC(C)OSN(C)C(=O)Oc1cccc2c1OC(C)(C)C2: 1.49
CCOSN(C)C(=O)Oc1cccc2c1OC(C)(C)C2: 1.20
CCCCOSN(C)C(=O)Oc1cccc(C(C)C)c1: 2.08

Look up log10 LD50 for this compound: CCCCCCOSN(C)C(=O)Oc1cccc2c1OC(C)(C)C2
0.97

Look up log10 LD50 for this compound: CCCCCCOSSN(C)C(=O)Oc1cccc2c1OC(C)(C)C2
1.11
